Source of measurements: patent US20220227735A1

- ASSAY TARGET: Plasmodium falciparum PKG (PfPKG) (Plasmodium falciparum, UniProt Q8I719)
- Construct: Full length PfPKG was cloned into the pTrcHisC vector for expression in BL21 (DE3) Star cells; His tag (pTrcHisC vector) (N); made in house; host or cells: E. coli BL21 (DE3) Star
- Sequence (Q8I719 whole entry): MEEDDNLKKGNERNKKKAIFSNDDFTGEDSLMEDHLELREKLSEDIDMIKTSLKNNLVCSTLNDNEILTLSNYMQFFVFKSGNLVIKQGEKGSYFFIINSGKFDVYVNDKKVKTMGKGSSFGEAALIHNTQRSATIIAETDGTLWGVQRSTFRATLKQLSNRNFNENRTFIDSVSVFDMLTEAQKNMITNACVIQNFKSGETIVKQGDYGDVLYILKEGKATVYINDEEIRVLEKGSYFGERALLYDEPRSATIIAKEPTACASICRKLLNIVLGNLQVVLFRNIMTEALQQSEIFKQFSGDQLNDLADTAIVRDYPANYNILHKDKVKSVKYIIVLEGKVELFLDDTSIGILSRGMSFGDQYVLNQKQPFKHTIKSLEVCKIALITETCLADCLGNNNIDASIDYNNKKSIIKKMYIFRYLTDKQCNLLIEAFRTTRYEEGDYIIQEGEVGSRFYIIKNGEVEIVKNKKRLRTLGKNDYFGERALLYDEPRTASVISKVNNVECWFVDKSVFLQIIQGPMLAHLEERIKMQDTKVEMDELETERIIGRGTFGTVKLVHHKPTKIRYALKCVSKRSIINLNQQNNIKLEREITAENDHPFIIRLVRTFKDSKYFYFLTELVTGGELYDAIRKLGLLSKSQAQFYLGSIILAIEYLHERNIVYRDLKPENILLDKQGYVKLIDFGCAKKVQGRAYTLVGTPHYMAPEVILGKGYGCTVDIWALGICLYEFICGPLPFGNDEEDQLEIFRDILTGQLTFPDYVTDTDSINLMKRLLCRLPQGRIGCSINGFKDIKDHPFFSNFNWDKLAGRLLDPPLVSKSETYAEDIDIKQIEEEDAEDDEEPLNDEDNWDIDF
- EXPERIMENTAL PROTOCOL: PfPKG IMAP fluorescence polarization kinase assay
- Assay type: biochemical
VALUE TYPE: IC50

CN1CCC(C)(c2cc(-c3ccncc3)c(-c3ccc(F)cc3)[nH]2)CC1 [Example 28] ... < 1000 nM
CN1C2CCC1CC(c1cc(-c3ccncc3)c(-c3ccc(F)cc3)[nH]1)C2 (stereo not drawn) [Example 27] ... < 1000 nM

Tell me the measured IC50 of C[C@@H]1CN(C)CC[C@@H]1c1cc(-c2ccncc2)c(-c2ccc(F)cc2)[nH]1 (single isomer, unassigned) [Example 31] , please. < 1000 nM

* * *

- ASSAY TARGET: Plasmodium falciparum PKG (PfPKG) (Plasmodium falciparum)
- Construct: Full length PfPKG was cloned into the pTrcHisC vector for expression in BL21 (DE3) Star cells; His tag (pTrcHisC vector) (N); made in house; host or cells: E. coli BL21 (DE3) Star
- EXPERIMENTAL PROTOCOL: PfPKG IMAP fluorescence polarization kinase assay
- Type: biochemical
- COND: recombinant PfPKG, 10 uM ATP, 1 uM cGMP, FAM-PKAtide substrate; read-out: PfPKG (μm)
pIC50: −log10 of the molar value.
VALUE TYPE: pIC50

Cc1cnccc1-c1cc(C2CCN(C)CC2)[nH]c1-c1ccc(F)cc1 ... > 6.00
CN1CCC(c2cc(-c3ccncc3C(N)=O)c(-c3ccc(F)cc3)[nH]2)CC1 ... > 6.00
CN1CCC(c2[nH]c(-c3ccc(F)cc3)c(-c3ccncc3)c2Br)CC1 ... > 6.00
CN1CCC(c2cc(-c3ccncc3)c(-c3ccc(C(F)(F)F)cc3)[nH]2)CC1 ... > 6.00
CCc1c(C2CCN(C)CC2)[nH]c(-c2ccc(F)cc2)c1-c1ccncc1 ... > 6.00
CN(C)Cc1c(C2CCN(C)CC2)[nH]c(-c2ccc(F)cc2)c1-c1ccncc1 ... > 6.00
CN1CCC(c2[nH]c(-c3ccc(F)cc3)c(-c3ccncc3)c2C(N)=O)CC1 ... > 6.00
CN1CCC(c2cc(-c3ccncc3C#N)c(-c3ccc(F)cc3)[nH]2)CC1 ... > 6.00
CN1CCC(c2[nH]c(-c3ccc(F)cc3)c(-c3ccncc3)c2C#N)CC1 ... > 6.00

Field request: pIC50 | item: `CNCc1c(C2CCN(C)CC2)[nH]c(-c2ccc(F)cc2)c1-c1ccncc1` > 6.00

* * *

Each entry below lists one item and its recorded IC50 value.
- ASSAY TARGET: Plasmodium falciparum PKG (PfPKG) (Plasmodium falciparum, UniProt Q8I719)
- Construct: Full length PfPKG was cloned into the pTrcHisC vector for expression in BL21 (DE3) Star cells; His tag (pTrcHisC vector) (N); made in house; host or cells: E. coli BL21 (DE3) Star
- EXPERIMENTAL PROTOCOL: PfPKG IMAP fluorescence polarization kinase assay
- Assay type: biochemical
- COND: recombinant PfPKG, 10 uM ATP, 1 uM cGMP, FAM-PKAtide substrate; read-out: PfPKG (μm)

CN1CCC(c2cc(-c3ccncc3CO)c(-c3ccc(F)cc3)[nH]2)CC1 ... < 1000 nM
CN1C[C@@H]2C(c3cc(-c4ccncc4)c(-c4ccc(F)cc4)[nH]3)[C@@H]2C1 (stereo partly shown) ... < 1000 nM
CC(O)c1cc(-c2cc(C3CCN(C)CC3)[nH]c2-c2ccc(F)cc2)ccn1 (stereo not shown) ... < 1000 nM

Proceeding to the next molecule to report its IC50.
Request: IC50, test system Plasmodium falciparum PKG (PfPKG) (Plasmodium falciparum, UniProt Q8I719), entry C[C@H]1C[C@H](c2cc(-c3ccncc3)c(-c3ccc(F)cc3)[nH]2)CCN1C (single isomer, unassigned) < 1000 nM

* * *

- Tested on: human PKG (hPKG)
- EXPERIMENTAL PROTOCOL: Human PKG IMAP fluorescence polarization kinase assay
- Type: biochemical
- COND: compound at 10 μm; recombinant hPKG, 10 uM ATP, 1 uM cGMP, FAM-IP3R substrate
Reported Human PKG (10 μm) values for the following compounds.
Answer field: number only, no words.

# annotated cases, reported Human PKG (10 μm) shown
C[C@@H]1CN(C)CC[C@@H]1c1cc(-c2ccncc2)c(-c2ccc(F)cc2)[nH]1 (single isomer, unassigned) ... 82
CC(O)c1c(C2CCN(C)CC2)[nH]c(-c2ccc(F)cc2)c1-c1ccncc1 (stereo not shown) ... 3
CN1CCC(c2[nH]c(-c3ccc(F)cc3)c(-c3ccncc3)c2Br)CC1 ... 52
CN1CCC(c2cc(-c3ccnc(Br)c3)c(-c3ccc(F)cc3)[nH]2)CC1 ... 60
CN1CCc2c(ccc3c(-c4ccncc4)c(-c4ccc(F)cc4)[nH]c23)C1 ... 35
CN1CCC(c2[nH]c(-c3ccc(F)cc3)c(-c3ccncc3)c2C(N)=O)CC1 ... −8
CN1CCC(c2cc(-c3ccn4nnnc4c3)c(-c3ccc(F)cc3)[nH]2)CC1 ... −35
COc1ccc(-c2[nH]c(C3CCN(C)CC3)cc2-c2ccncc2)cc1 ... 38

Tell me the measured Human PKG (10 μm) of `CN(C)Cc1c(C2CCN(C)CC2)[nH]c(-c2ccc(F)cc2)c1-c1ccncc1` , please. −3

Which measured Human PKG (10 μm) value corresponds to C[C@@H]1CN(C)CC[C@H]1c1cc(-c2ccncc2)c(-c2ccc(F)cc2)[nH]1 (single isomer, unassigned) ? 66

Would you kindly share the measured Human PKG (10 μm) for `C=Cc1c(C2CCN(C)CC2)[nH]c(-c2ccc(F)cc2)c1-c1ccncc1` ? 34

Fill in the blank: the reported Human PKG (10 μm) of `CN1CCC(c2cc(-c3ccncc3CO)c(-c3ccc(F)cc3)[nH]2)CC1` is ____. −1

Quick check: Human PKG (10 μm) of CC(O)c1cc(-c2cc(C3CCN(C)CC3)[nH]c2-c2ccc(F)cc2)ccn1 (stereo not shown) ? −4

Given the compound `CN1CCC(c2cc(-c3ccncc3C#N)c(-c3ccc(F)cc3)[nH]2)CC1` , what is its reported Human PKG (10 μm)? 12

Param item = `CN1CCC(c2cc(-c3ccncc3Br)c(-c3ccc(F)cc3)[nH]2)CC1` ; retrieve measured Human PKG (10 μm). 39

* * *

- System: human PKG (hPKG)
- EXPERIMENTAL PROTOCOL: Human PKG IMAP fluorescence polarization kinase assay
- Assay type: biochemical
- COND: compound at 10 μm; recombinant hPKG, 10 uM ATP, 1 uM cGMP, FAM-IP3R substrate
- Experimental: Human PKG, cloned into a pENTR221 vector, was obtained from DNASU.org. (HsCD00351766). It was cloned into a mammalian expression plasmid, Gateway pDEST27 (Invitrogen) for expression as a GST fusion protein, using LR Clonase II Plus enzyme (Invitrogen). […] Plasmodium falciparum PKG (PfPKG) and human PKG (hPKG) kinase activity was assayed using a commercial immobilized metal ion affinity-based fluorescence polarization (IMAP) assay according to the manufactures protocol (Molecular Devices). […]
Class (by Human PKG (10 μm)) -- 1 = under 10, 2 = from 10 up to 30, 3 = 30 and over

Use these answered entries as a reference point.
CN1CCC(c2cc(-c3ccncc3)c(-c3ccc(F)cc3)n2C)CC1 ... 2
CN1CCC(c2[nH]c(-c3ccc(F)cc3)c(-c3ccncc3)c2CO)CC1 ... 2

Categorize the following entry: `CN1CCC(c2cc(-c3ccnc(C(N)=O)c3)c(-c3ccc(F)cc3)[nH]2)CC1` 2

Which category does the recorded Human PKG (10 μm) put `Cc1cnccc1-c1cc(C2CCN(C)CC2)[nH]c1-c1ccc(F)cc1` in? 3

Note: place this compound into its band. Item: `CN1CCC(c2cc(-c3ccnc(N)c3)c(-c3ccc(F)cc3)[nH]2)CC1` 3

Into which category would you place CN1C[C@@H]2C(c3cc(-c4ccncc4)c(-c4ccc(F)cc4)[nH]3)[C@@H]2C1 (stereo partly shown) ? 1

Assign a bin to `CCc1c(C2CCN(C)CC2)[nH]c(-c2ccc(F)cc2)c1-c1ccncc1` 3

* * *

- Test system: human PKG (hPKG)
- EXPERIMENTAL PROTOCOL: Human PKG IMAP fluorescence polarization kinase assay
- Assay type: biochemical
- COND: compound at 10 μm; recombinant hPKG, 10 uM ATP, 1 uM cGMP, FAM-IP3R substrate
VALUE TYPE: Human PKG (10 μm)
I only need the number, thanks.

CN1CCC(c2[nH]c(-c3ccc(F)cc3)c(-c3ccncc3)c2C#N)CC1 [Example 18] ... 57

Please provide the recorded Human PKG (10 μm) for CN1CCC(C)(c2cc(-c3ccncc3)c(-c3ccc(F)cc3)[nH]2)CC1 [Example 28] , tested on human PKG (hPKG). 29

Fill in the recorded Human PKG (10 μm) for this compound, with human PKG (hPKG) as test system: CN1CCC(c2cc(-c3ccncc3)c(-c3ccc(C(F)(F)F)cc3)[nH]2)CC1 [Example 33] 9

Could you share what Human PKG (10 μm) was measured for CNCc1c(C2CCN(C)CC2)[nH]c(-c2ccc(F)cc2)c1-c1ccncc1 [Example 23] , tested on human PKG (hPKG)? 0

# returns recorded Human PKG (10 μm) (system: human PKG (hPKG)) for CN1CCC(c2[nH]c(-c3ccc(F)cc3)c(-c3ccncc3)c2CS(C)(=O)=O)CC1 [Example 25] 17

Quick check: Human PKG (10 μm) on human PKG (hPKG), item CN1C2CCC1CC(c1cc(-c3ccncc3)c(-c3ccc(F)cc3)[nH]1)C2 (stereo not drawn) [Example 27] ? 32
